So I've got a bunch of binders here, and I need their percent inhibition of neutrophil binding to GMP-140 at 0.1 mM peptide values.
target: GMP-140 receptors on the surface of leukocytes (human); test: neutrophil adhesion to GMP-140 coated wells, peptide preincubated with neutrophils, myeloperoxidase read-out
No end group written: not given here.
Answers are plain numbers, in %.

These solved cases illustrate the format of a correct answer.
binder=RKNNKTWTWE-NH2 units=% number=17
binder="RKNNKTWT-NH2 [RKNNKTWT-NH2]" units=% number=26
binder=CRKNNKTWTWV-NH2 units=% number=87

Query binder follows.
Would you kindly share the measured percent inhibition of neutrophil binding to GMP-140 at 0.1 mM peptide for RENNKTWTWV-NH2 ? 34
